- system under test: Voltage-gated inwardly rectifying potassium channel KCNH2 (Homo sapiens)
- Sequence (Q12809 whole entry): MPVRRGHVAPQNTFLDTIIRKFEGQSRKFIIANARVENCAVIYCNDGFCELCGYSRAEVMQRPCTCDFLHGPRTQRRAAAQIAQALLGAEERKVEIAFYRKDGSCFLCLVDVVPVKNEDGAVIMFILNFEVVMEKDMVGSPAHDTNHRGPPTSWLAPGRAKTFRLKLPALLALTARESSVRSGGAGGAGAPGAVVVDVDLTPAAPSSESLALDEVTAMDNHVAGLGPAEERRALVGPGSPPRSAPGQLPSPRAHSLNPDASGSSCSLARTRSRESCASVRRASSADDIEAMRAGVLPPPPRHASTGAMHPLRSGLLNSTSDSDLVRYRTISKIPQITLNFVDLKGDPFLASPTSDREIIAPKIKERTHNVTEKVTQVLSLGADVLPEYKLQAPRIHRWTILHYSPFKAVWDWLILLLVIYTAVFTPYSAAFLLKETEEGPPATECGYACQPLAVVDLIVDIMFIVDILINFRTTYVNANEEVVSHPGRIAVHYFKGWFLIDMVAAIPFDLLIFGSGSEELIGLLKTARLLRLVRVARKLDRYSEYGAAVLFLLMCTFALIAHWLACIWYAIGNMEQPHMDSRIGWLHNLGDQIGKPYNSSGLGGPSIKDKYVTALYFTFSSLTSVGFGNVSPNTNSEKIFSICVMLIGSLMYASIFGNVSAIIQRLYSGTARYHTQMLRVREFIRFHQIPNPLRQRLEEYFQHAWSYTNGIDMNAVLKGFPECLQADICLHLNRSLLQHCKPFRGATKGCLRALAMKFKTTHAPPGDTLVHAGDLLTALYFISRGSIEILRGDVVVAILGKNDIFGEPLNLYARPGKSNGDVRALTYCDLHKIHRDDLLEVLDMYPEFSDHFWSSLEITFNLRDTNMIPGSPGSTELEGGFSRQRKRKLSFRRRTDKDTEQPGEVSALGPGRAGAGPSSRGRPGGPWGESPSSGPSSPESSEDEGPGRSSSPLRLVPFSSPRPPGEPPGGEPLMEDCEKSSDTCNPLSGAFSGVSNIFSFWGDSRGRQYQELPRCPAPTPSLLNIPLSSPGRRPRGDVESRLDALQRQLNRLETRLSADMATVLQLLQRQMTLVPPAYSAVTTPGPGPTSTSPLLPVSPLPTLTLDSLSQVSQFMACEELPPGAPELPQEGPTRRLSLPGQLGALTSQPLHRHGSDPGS
- assay protocol: Inhibition of human ERG expressed in HEK293 cells incubated for 5 mins by patch clamp assay
parameter: IC50 (µM)

C[C@@H]1Cc2c([nH]c3ccccc23)[C@@H](c2c(F)cc(NC3CN(CCCF)C3)cc2F)N1CC(F)(F)CO : 6.1

###

- assay protocol: in vitro
- measurement setup: human, human liver microsomes
parameter: CLint scaled at 1 h, 1 µM (mL/min/kg)

C[C@@H]1Cc2c([nH]c3ccc(F)cc23)[C@@H](c2c(F)cc(NC3CN(CCCF)C3)cc2F)N1CC(F)(F)CO : 10

###

- assay protocol: in vivo
- measurement setup: cynomolgus monkey, po, 100 mg/kg
parameter: bioavailability (%)

C[C@@H]1Cc2c([nH]c3ccccc23)[C@@H](c2c(F)cc(NC3CN(CCCF)C3)cc2F)N1CC(F)(F)CO : 29

###

- assay protocol: Volume of distribution at steady state in Sprague-Dawley rat at 1 mg/kg, iv or po measured after 0.033 to 24 hrs by LC/MS/MS analysis
- measurement setup: in vivo
parameter: Vd (L/kg)

C[C@@H]1Cc2c([nH]c3ccccc23)[C@@H](c2c(F)cc(NC3CN(CCCF)C3)cc2F)N1CC(F)(F)CO [GIREDESTRANT] : 15

###

- system under test: Nav1.5 (Homo sapiens)
- Sequence (Q14524 whole entry): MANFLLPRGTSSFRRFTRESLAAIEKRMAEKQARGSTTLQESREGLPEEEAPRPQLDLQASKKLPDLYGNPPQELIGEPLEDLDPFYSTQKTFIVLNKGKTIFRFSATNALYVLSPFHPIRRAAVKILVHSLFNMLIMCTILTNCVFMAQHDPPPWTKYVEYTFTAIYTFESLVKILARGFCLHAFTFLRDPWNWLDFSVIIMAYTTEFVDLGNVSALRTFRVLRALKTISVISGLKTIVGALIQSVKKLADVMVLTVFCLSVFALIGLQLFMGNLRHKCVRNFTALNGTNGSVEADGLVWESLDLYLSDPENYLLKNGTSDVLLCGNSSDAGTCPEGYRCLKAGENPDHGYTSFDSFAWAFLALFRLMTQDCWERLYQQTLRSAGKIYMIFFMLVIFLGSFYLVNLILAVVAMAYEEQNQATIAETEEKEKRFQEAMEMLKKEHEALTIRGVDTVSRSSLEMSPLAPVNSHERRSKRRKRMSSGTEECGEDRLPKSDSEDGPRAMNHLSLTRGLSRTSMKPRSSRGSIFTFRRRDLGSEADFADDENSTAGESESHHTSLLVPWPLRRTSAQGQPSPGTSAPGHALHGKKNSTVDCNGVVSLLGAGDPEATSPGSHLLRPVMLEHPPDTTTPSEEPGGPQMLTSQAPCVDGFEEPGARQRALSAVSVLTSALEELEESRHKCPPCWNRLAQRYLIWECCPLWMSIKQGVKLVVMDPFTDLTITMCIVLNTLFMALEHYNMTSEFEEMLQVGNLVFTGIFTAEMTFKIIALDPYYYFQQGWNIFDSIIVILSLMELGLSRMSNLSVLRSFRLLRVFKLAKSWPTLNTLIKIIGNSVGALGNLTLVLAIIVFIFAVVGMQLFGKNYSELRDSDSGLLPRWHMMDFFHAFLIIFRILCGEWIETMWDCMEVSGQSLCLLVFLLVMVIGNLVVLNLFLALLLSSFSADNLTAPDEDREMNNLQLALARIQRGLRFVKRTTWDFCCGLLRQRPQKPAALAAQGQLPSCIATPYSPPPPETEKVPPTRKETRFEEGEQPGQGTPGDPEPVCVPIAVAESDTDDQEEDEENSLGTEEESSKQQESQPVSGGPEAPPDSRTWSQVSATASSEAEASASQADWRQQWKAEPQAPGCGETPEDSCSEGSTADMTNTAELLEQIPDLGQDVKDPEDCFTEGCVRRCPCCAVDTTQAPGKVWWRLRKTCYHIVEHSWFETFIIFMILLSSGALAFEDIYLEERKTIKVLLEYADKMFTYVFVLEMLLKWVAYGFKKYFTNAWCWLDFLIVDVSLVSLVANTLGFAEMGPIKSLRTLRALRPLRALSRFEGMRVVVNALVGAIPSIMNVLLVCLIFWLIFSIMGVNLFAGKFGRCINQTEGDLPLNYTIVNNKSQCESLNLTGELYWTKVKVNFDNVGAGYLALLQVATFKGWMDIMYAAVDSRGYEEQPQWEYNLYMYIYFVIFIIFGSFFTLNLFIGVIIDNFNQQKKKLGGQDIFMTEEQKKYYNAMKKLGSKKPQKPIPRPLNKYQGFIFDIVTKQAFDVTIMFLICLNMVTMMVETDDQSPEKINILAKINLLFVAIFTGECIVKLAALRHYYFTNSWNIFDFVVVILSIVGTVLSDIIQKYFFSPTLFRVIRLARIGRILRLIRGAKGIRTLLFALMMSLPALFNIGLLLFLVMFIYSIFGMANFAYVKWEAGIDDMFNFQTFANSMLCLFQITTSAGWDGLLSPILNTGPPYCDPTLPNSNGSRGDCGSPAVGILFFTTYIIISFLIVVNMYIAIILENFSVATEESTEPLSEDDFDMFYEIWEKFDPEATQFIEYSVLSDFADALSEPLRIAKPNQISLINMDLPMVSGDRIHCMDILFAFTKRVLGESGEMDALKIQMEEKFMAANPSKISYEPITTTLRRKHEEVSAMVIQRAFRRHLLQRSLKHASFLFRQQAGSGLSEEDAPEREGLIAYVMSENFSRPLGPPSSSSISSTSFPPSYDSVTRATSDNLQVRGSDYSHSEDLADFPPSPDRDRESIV
- assay protocol: Inhibition of human Nav1.5 expressed in CHO cells at 10 uM by QPatch HT assay
- measurement setup: CHO cells expressing human Nav1.5
In this section, each of the compounds is paired with its reported inhibition at 10 µM.
parameter: inhibition at 10 µM (%)

C[C@@H]1Cc2c([nH]c3ccc(F)cc23)[C@@H](c2c(F)cc(NC3CN(CCCF)C3)cc2F)N1CC(F)(F)CO : 14
C[C@@H]1Cc2c([nH]c3ccccc23)[C@@H](c2c(F)cc(NC3CN(CCCF)C3)cc2F)N1CC(F)(F)CO [GIREDESTRANT] : 16.7

###

- assay protocol: in vitro
- measurement setup: rat, rat hepatocytes
parameter: CLint scaled at 1 h (mL/min/kg)

C[C@@H]1Cc2c([nH]c3ccc(F)cc23)[C@@H](c2c(F)cc(NC3CN(CCCF)C3)cc2F)N1CC(F)(F)CO : 15

###

- assay protocol: in vitro
- measurement setup: mouse, mouse liver microsomes
parameter: CLint scaled at 1 h, 1 µM (mL/min/kg)

C[C@@H]1Cc2c([nH]c3ccccc23)[C@@H](c2c(F)cc(NC3CN(CCCF)C3)cc2F)N1CC(F)(F)CO [GIREDESTRANT] : 52

###

- assay protocol: in vivo
- measurement setup: Sprague-Dawley, rat, po, 100 mg/kg
parameter: bioavailability (%)

C[C@@H]1Cc2c([nH]c3ccccc23)[C@@H](c2c(F)cc(NC3CN(CCCF)C3)cc2F)N1CC(F)(F)CO : 65

###

- assay protocol: Clearance in Sprague-Dawley rat at 1 mg/kg, iv or po measured after 0.033 to 24 hrs by LC/MS/MS analysis
- measurement setup: in vivo
parameter: clearance (mL/min/kg)

C[C@@H]1Cc2c([nH]c3ccccc23)[C@@H](c2c(F)cc(OC3CN(CCCF)C3)cc2F)N1CC(C)(C)F : 19
CC/C(=C(/c1ccc(/C=C/C(=O)O)cc1)c1ccc2[nH]ncc2c1)c1ccc(F)cc1Cl : 40
C[C@@H]1Cc2c([nH]c3ccccc23)[C@@H](c2c(F)cc(OCCN3CC(CF)C3)cc2F)N1CC(C)(C)F : 34
CC/C(=C(\c1ccccc1)c1ccc(OCCN(C)C)cc1)c1ccccc1 : 95

###

- assay protocol: Kinetic solubility of compound at pH 7.4
- measurement setup: buffer
// label = True if solubility kinetic is not less than 100 µM, otherwise False

C[C@@H]1Cc2c([nH]c3ccccc23)[C@@H](c2c(F)cc(N[C@H]3CCN(CCCF)C3)cc2F)N1CC(F)(F)CO : False
C[C@@H]1Cc2c([nH]c3ccccc23)[C@@H](c2c(F)cc(NC3CN(CCCF)C3)cc2F)N1CC(F)(F)CO [GIREDESTRANT] : True
C[C@@H]1Cc2c([nH]c3ccccc23)[C@@H](c2c(F)cc(NCCNCCCF)cc2F)N1CC(F)(F)CO : True
C[C@@H]1Cc2c([nH]c3ccccc23)[C@@H](c2c(F)cc(OCCN3CC(CF)C3)cc2F)N1CC(C)(C)F : False
C[C@@H]1Cc2c([nH]c3ccccc23)[C@@H](c2c(F)cc(OC3CN(CCCO)C3)cc2F)N1CC(F)(F)CO : True
C[C@@H]1Cc2c([nH]c3cccc(F)c23)[C@@H](c2c(F)cc(NC3CN(CCCF)C3)cc2F)N1CC(F)(F)CO : False
C[C@@H]1Cc2c([nH]c3ccccc23)[C@@H](c2ccc(NC3CN(CCCF)C3)nc2)N1CC(F)(F)CO : True

###

- assay protocol: in vitro
- measurement setup: rat, hepatocytes
CLint scaled at 1 h strictly less than 30 mL/min/kg = 1.0. Otherwise 0.0.

C[C@@H]1Cc2c([nH]c3ccccc23)[C@@H](c2c(F)cc(OCCN3CC(CF)C3)cc2F)N1CC(C)(C)F : 1.0
C[C@@H]1Cc2c([nH]c3ccccc23)[C@@H](c2c(F)cc(OC3CN(CCCF)C3)cc2F)N1CC(C)(C)F : 1.0
C[C@@H]1Cc2c([nH]c3cccc(F)c23)[C@@H](c2c(F)cc(NC3CN(CCCF)C3)cc2F)N1CC(F)(F)CO : 1.0
CC/C(=C(\c1ccc(O)cc1)c1ccc(OCCN(C)C)cc1)c1ccccc1 [AFIMOXIFENE] : 0.0
CC/C(=C(/c1ccc(/C=C/C(=O)O)cc1)c1ccc2[nH]ncc2c1)c1ccc(F)cc1Cl [BRILANESTRANT] : 1.0
CC1=C(c2cccc(O)c2)[C@H](c2ccc(OCCN3CC(CF)C3)cc2)Oc2ccc(O)cc21 : 0.0
C[C@]12CC[C@@H]3c4ccc(O)cc4C[C@@H](CCCCCCCCC[S+]([O-])CCCC(F)(F)C(F)(F)F)[C@H]3[C@@H]1CC[C@@H]2O (some centres undefined) [FULVESTRANT] : 1.0
CC/C(=C(\c1ccccc1)c1ccc(OCCN(C)C)cc1)c1ccccc1 [TAMOXIFEN] : 0.0
C[C@@H]1Cc2c([nH]c3ccccc23)[C@@H](c2c(F)cc(NC3CN(CCCF)C3)cc2F)N1CC(F)(F)CO [GIREDESTRANT] : 1.0

###

- assay protocol: in vivo
- measurement setup: cynomolgus monkey, po, 1 mg/kg
parameter: bioavailability

C[C@@H]1Cc2c([nH]c3ccccc23)[C@@H](c2c(F)cc(NC3CN(CCCF)C3)cc2F)N1CC(F)(F)CO : 17%

###

- assay protocol: Half life in Sprague-Dawley rat at 1 mg/kg, iv or po measured after 0.033 to 24 hrs by LC/MS/MS analysis
- measurement setup: in vivo
parameter: half-life (h)

C[C@@H]1Cc2c([nH]c3ccccc23)[C@@H](c2c(F)cc(NC3CN(CCCF)C3)cc2F)N1CC(F)(F)CO [GIREDESTRANT] : 8

###

Recorded logD values for a group of compounds are listed next.
- assay protocol: Distribution coefficient, logD of the compound at pH 7.4
- measurement setup: octanol/water
parameter: logD

CC/C(=C(\c1ccc(O)cc1)c1ccc(OCCN(C)C)cc1)c1ccccc1 [AFIMOXIFENE] : 4
C[C@@H]1Cc2c([nH]c3ccccc23)[C@@H](c2c(F)cc(OC3CN(CCCF)C3)cc2F)N1CC(C)(C)F : 4.8

###

- assay protocol: Half life in cynomolgus monkey at 1 mg/kg, iv or po measured after 0.033 to 24 hrs by LC/MS/MS analysis
- measurement setup: in vivo
parameter: half-life (h)

C[C@@H]1Cc2c([nH]c3ccccc23)[C@@H](c2c(F)cc(NC3CN(CCCF)C3)cc2F)N1CC(F)(F)CO [GIREDESTRANT] : 7.3

###

- assay protocol: in vitro
- measurement setup: cynomolgus monkey, cynomolgus monkey liver microsomes
parameter: CLint scaled at 1 h, 1 µM (mL/min/kg)

C[C@@H]1Cc2c([nH]c3ccccc23)[C@@H](c2c(F)cc(NC3CN(CCCF)C3)cc2F)N1CC(F)(F)CO [GIREDESTRANT] : 22

###

- system under test: CYP3A4 (Homo sapiens, UniProt P08684)
- Sequence (P08684 whole entry): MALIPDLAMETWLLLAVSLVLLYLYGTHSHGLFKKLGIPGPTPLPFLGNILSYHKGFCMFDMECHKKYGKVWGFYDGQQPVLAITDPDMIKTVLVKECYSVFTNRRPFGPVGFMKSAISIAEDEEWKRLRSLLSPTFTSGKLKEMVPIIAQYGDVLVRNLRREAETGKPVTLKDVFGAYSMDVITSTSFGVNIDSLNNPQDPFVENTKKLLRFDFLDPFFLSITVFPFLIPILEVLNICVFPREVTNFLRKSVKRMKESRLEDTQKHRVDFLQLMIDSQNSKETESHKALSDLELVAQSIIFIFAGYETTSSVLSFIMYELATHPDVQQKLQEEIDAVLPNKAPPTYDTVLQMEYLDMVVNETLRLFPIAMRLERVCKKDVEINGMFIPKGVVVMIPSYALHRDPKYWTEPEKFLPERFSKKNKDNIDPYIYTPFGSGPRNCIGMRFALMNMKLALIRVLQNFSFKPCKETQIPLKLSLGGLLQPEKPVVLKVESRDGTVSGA
- assay protocol: Time dependent inhibition of CYP3A4 in human liver microsomes using midazolam as substrate incubated for 10 mins by LC-MS/MS analysis
parameter: inhibition at 10 min (%)

C[C@@H]1Cc2c([nH]c3ccccc23)[C@@H](c2c(F)cc(NC3CN(CCCF)C3)cc2F)N1CC(F)(F)CO [GIREDESTRANT] : -0.9

###

- system under test: Estrogen receptor (Homo sapiens)
- Sequence (P03372 whole entry): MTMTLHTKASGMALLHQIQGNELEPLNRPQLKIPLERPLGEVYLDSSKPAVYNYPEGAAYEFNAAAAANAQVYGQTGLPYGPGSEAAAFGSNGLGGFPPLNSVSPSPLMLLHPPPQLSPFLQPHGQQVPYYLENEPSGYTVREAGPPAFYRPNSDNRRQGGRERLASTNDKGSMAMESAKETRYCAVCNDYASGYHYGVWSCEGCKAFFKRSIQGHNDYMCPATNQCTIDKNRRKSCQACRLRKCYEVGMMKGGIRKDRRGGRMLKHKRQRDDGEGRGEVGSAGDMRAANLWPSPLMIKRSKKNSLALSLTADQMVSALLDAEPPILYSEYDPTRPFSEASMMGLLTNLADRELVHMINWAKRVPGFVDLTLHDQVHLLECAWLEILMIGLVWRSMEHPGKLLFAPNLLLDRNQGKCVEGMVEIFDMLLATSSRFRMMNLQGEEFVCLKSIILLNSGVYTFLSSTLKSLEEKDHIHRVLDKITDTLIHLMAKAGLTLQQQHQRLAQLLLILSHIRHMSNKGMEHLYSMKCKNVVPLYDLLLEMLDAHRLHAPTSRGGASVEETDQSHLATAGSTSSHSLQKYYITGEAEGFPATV
- measurement setup: mcf7
- Description: Induction of estrogen receptor degradation in human MCF7 cells incubated for 4 hrs by Alexafluor -488 conjugate anti-mouse IgG staining based fluorescence method
Collected DC50 values appear next to each entry.
parameter: DC50 (nM)

C[C@@H]1Cc2c([nH]c3ccccc23)[C@@H](c2c(F)cc(OC3CN(CCCO)C3)cc2F)N1CC(F)(F)CO : 0.03
C[C@@H]1Cc2c([nH]c3ccccc23)[C@@H](c2c(F)cc(N[C@H]3CCN(CCCF)C3)cc2F)N1CC(F)(F)CO : 0.16
C[C@@H]1Cc2c([nH]c3cccc(F)c23)[C@@H](c2c(F)cc(NC3CN(CCCF)C3)cc2F)N1CC(F)(F)CO : 0.04
C[C@@H]1Cc2c([nH]c3ccccc23)[C@@H](c2c(F)cc(NC3CN(CCC(F)F)C3)cc2F)N1CC(F)(F)CO : 0.02
